Taken from patent US20240067651A1.

# PROTOCOL NOTES: Stability in Simulated Intestinal Fluid (SIF)
# Format: in vitro ADME
# Set-up: key: % parent compound remaining relative to 0-minute sample
# CONDITION NOTES: % remaining at 1 h; SIF with pancreatin pH 6.8, 2 μg/mL, 37° C.
RECORDED ENDPOINT: SIF (% remaining)
Express it in % remaining; write the number only.

Example cases with answers are listed next.
{"MOLECULE": "CC(C)OCCn1c(=S)n2c(=O)c3c1ccn3COC(=O)CCC(=O)N1CCC(CC1)C(=O)OC2 [Example 140]", "SIF, % remaining": 79}
{"MOLECULE": "CC(C)OCCn1c(=S)[nH]c(=O)c2c1ccn2COC(=O)C[C@H](NC(=O)CCCCCCCCCCC(=O)O)C(=O)O [Example 142]", "SIF, % remaining": 97}
{"MOLECULE": "CC(C)OCCn1c(SCOC(=O)OC(C)C)nc(=O)c2c1ccn2COC(=O)OC(C)C [Example 91]", "SIF, % remaining": 99}
{"MOLECULE": "CC(C)OCCn1c(=S)[nH]c(=O)c2c1ccn2COC(=O)OC(C)C [Example 90]", "SIF, % remaining": 56}

Please turn your attention to the following entry.
Query: Recorded SIF of CC(C)OCCn1c(=S)n(COC(=O)C2CCNCC2)c(=O)c2c1ccn2COC(=O)CCC(=O)O.O=C(O)C(F)(F)F [Example 139] , please.
Reply: 98

====

# PROTOCOL NOTES: Stability in Simulated Intestinal Fluid (SIF)
# Type: in vitro ADME
# Set-up: key: % parent compound remaining relative to 0-minute sample
# CONDITION NOTES: % remaining at 1 h in simulated intestinal fluid
# SIF per record follows
Express it in % remaining; write the number only.

{"SMILES TEXT": "CC(C)OCCn1c(=S)[nH]c(=O)c2c1ccn2COC(=O)CCNC(=O)CN(C)C(=O)OC(C)(C)C.O=C(O)C(F)(F)F", "RECORDED ENDPOINT": "SIF", "ASSAY RESULT": 87}
{"SMILES TEXT": "CC[C@H](C)[C@H](NC(=O)OC(C)(C)C)C(=O)NCCCCC(=O)OCn1ccc2c1c(=O)[nH]c(=S)n2CCOC(C)C", "RECORDED ENDPOINT": "SIF", "ASSAY RESULT": 78}

Please turn your attention to the following entry.
Query: Recorded SIF of CC(C)OCCn1c(=S)[nH]c(=O)c2c1ccn2COC(=O)CCNC(=O)[C@@H](N)C(C)C.O=C(O)C(F)(F)F , please.
Reply: 84

====

# PROTOCOL NOTES: Caco-2 Permeability Assay
# Assay type: in vitro ADME, human
# CONDITION NOTES: human, Caco-2, pH 7.4, Caco-2 monolayer
RECORDED ENDPOINT: Papp at 90 min, 10 µM (×10⁻⁶ cm/s)
Express it in ×10⁻⁶ cm/s; write the number only.

{"COMPOUND": "CC(C)OCCn1c(SCOC(=O)OCCOCCNC(=O)OC(C)(C)C)nc(=O)c2c1ccn2COC(=O)OCCOCCNC(=O)OC(C)(C)C [Example 121]", "Papp at 90 min, 10 µM / ×10⁻⁶ cm/s": 1.19}

Query: Recorded Papp at 90 min, 10 µM of CNCC(=O)NCCC(=O)OCn1ccc2c1c(=O)[nH]c(=S)n2CCOC(C)C.O=C(O)C(F)(F)F [Example 56] , please.
Reply: 0.144

Query: Please give the result for C=CCN(C)C(=O)OCSc1nc(=O)c2c(ccn2COC(=O)N(C)CC=C)n1CCOC(C)C.O=C(O)C(F)(F)F [Example 178] too.
Reply: 19.4

Query: Please give the result for CC(C)OCCn1c(=S)[nH]c(=O)c2c1ccn2COC(=O)CCCCNC(=O)[C@H](Cc1ccccc1)NC(=O)OCC1c2ccccc2-c2ccccc21.O=C(O)C(F)(F)F [Example 22] too.
Reply: 0.647

Query: Please give the result for CC(C)OCCn1c(=S)[nH]c(=O)c2c1ccn2COC(=O)CCCCNC(=O)[C@@H](N)CO.O=C(O)C(F)(F)F [Example 43] too.
Reply: 0.147

Query: Please give the result for Cc1ccccc1N(C)C(=O)OCSc1nc(=O)c2c(ccn2COC(=O)N(C)c2ccccc2C)n1CCOC(C)C [Example 243] too.
Reply: 31.4
